LD50 values, listed per item
testName: Lethal dose when given intraperitoneally in mice
Type: toxicity, organism-based
conditionSummary: mouse, in vivo, ip
measuredQuantity: LD50 (mg/kg)

1. CC(C)Nc1nn2c(-c3ccccc3)nnc2c2ccccc12 400
2. O=C(O)c1ccc(-c2nnc3c4ccccc4c(N4CCCC4)nn23)cc1 400
3. c1ccc(-c2nnc3c4ccccc4c(N4CCCC4)nn23)cc1 400
